// provenance: ChEMBL document CHEMBL1149191

target: Amine oxidase [flavin-containing] B (Rattus norvegicus); test: Inhibition of Monoamine oxidase B from rat liver mitochondria
Assign labels as follows, please: condition met for IC50 below 80 µM; condition not met for IC50 equal to or exceeding 80 µM.

| SMILES RECORD | CLASSIFICATION |
| --- | --- |
| CC(C)c1ccc(-c2c(N)nnc3c4ccccc4n(C)c23)cc1 | condition not met |

Say whether its IC50 is strictly beneath 80 µM. Entry: Cn1c2ccccc2c2nnc(N)c(-c3ccccc3F)c21 condition met

---

target: Amine oxidase [flavin-containing] A (Rattus norvegicus, UniProt P21396); assay: Inhibition of Monoamine oxidase A from rat liver mitochondria
Sequence (P21396 whole entry): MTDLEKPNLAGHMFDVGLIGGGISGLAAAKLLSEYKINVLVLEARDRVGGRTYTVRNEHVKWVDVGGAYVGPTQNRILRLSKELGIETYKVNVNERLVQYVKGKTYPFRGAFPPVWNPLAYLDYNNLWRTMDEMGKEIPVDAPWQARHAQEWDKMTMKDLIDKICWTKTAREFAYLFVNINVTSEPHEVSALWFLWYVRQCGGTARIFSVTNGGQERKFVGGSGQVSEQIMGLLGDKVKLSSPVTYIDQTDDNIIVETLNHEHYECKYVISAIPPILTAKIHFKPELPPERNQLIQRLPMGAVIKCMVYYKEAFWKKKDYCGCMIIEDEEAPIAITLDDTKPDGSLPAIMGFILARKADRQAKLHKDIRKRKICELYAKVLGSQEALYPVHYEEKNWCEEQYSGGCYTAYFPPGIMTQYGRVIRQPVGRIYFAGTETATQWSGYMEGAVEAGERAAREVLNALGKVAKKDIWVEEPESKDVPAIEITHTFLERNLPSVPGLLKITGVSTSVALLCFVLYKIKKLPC
Each item that follows carries a reported IC50.

Examples with answers:
| SMILES RECORD | IC50 |
| --- | --- |
| CC(C)c1ccc(-c2c3nc4ccccc4c-3n[nH]c2N)cc1 | > 1000 µM |
| Cn1c2ccccc2c2nnc(N)c(-c3ccccc3Cl)c21 | ~1000 µM |

State the recorded IC50 for this entry: CCn1c2ccccc2c2nnc(N)c(-c3ccccc3Cl)c21 ~1000 µM

---

Below, each entry is listed with its recorded inhibition at 0.2 µg/mL.
tested on: Mycobacterium tuberculosis; test: In vitro inhibition of Mycobacterium tuberculosis H37Rv, determined at 0.2 ug/mL; assay type: functional
The answer is to be given in %; state only the numeric part.

| SMILES RECORD | SYSTEM NAME | SCALE UNIT | inhibition at 0.2 µg/mL |
| --- | --- | --- | --- |
| Cc1ccc(-c2c(N)nnc3c4ccccc4n(C)c23)cc1 | Mycobacterium tuberculosis | % | 0 |
| CCn1c2ccccc2c2nnc(N)c(-c3ccc(C(C)C)cc3)c21 | Mycobacterium tuberculosis | % | 0 |
| CCCn1c2ccccc2c2nnc(N)c(-c3ccc(C(C)C)cc3)c21 | Mycobacterium tuberculosis | % | 0 |
| CC(C)c1ccc(-c2c(N)nnc3c4ccccc4n(CCN(C)C)c23)cc1 | Mycobacterium tuberculosis | % | 0 |
| Nc1nnc2c3ccccc3n(Cc3ccccc3)c2c1-c1ccccc1Cl | Mycobacterium tuberculosis | % | 0 |

Can you share its inhibition at 0.2 µg/mL? I mean this molecule: CN(C)c1ccc(-c2c3nc4ccccc4c-3n[nH]c2N)cc1 5.2

// returns reported inhibition at 0.2 µg/mL for input Cn1c2ccccc2c2nnc(N)c(-c3cccc(Br)c3)c21 0

GET /values?readout=inhibition at 0.2 µg/mL&item= Nc1[nH]nc2c3ccccc3nc-2c1-c1ccccc1Cl 0

So what does the record say about inhibition at 0.2 µg/mL for Cn1c2ccccc2c2nnc(N)c(-c3ccccc3)c21 ? 2.3

Fill in the blank: the reported inhibition at 0.2 µg/mL of COc1ccc(-c2c3nc4ccccc4c-3n[nH]c2N)cc1 is ____. 0

# input molecule: CC(C)c1ccc(-c2c3nc4ccccc4c-3n[nH]c2N)cc1 ; wanted: its inhibition at 0.2 µg/mL 8.7

# query: inhibition at 0.2 µg/mL of entry Cc1ccc(-c2c3nc4ccccc4c-3n[nH]c2N)cc1 0

Given CC(C)c1ccc(-c2c3nc4ccc(Br)cc4c-3n[nH]c2N)cc1 , state its recorded inhibition at 0.2 µg/mL. 7.1

---

Biological target: UniProtKB P19643
Sequence (P19643 whole entry): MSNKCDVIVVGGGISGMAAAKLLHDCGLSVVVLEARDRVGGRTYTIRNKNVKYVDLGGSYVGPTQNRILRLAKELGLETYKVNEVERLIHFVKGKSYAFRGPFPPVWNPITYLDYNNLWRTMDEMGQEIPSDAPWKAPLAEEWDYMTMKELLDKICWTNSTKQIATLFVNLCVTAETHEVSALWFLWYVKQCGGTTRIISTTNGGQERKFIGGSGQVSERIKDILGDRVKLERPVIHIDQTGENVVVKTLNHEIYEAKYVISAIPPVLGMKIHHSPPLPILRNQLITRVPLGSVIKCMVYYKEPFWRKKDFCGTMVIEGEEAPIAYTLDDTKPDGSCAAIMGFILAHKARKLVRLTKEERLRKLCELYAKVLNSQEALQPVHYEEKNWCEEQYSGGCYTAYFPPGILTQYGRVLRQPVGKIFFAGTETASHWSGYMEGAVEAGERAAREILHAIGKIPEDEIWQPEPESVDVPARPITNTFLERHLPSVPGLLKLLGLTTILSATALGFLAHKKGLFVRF
Assay: Inhibition of Monoamine oxidase B from rat liver mitochondria
TEST READOUT: IC50 (µM)
Numbers only here, please. The scale is µM.

Can you look up the measured IC50 of CCn1c2ccccc2c2nnc(N)c(-c3ccccc3)c21 for me? 72

---

test system: Mycobacterium tuberculosis; assay: In vitro inhibition of Mycobacterium tuberculosis H37Rv, determined at 0.2 ug/mL; assay type: functional
TEST READOUT: inhibition at 0.2 µg/mL
Provide the measurement as a number trailed by its unit.

// solved cases for inhibition at 0.2 µg/mL follow
| SMILES RECORD | TEST READOUT | MEASURED VALUE |
| --- | --- | --- |
| CC(C)c1ccc(-c2c(N)nnc3c4cc(Br)ccc4n(C)c23)cc1 | inhibition at 0.2 µg/mL | 0% |
| Cn1c2ccccc2c2nnc(N)c(-c3ccccc3Cl)c21 | inhibition at 0.2 µg/mL | 0% |

Next up:
Requested read-out inhibition at 0.2 µg/mL, target or system Mycobacterium tuberculosis, entry CCn1c2ccccc2c2nnc(N)c(-c3ccccc3Cl)c21 0%

---

Molecular target: UniProtKB P19643
Sequence (P19643 whole entry): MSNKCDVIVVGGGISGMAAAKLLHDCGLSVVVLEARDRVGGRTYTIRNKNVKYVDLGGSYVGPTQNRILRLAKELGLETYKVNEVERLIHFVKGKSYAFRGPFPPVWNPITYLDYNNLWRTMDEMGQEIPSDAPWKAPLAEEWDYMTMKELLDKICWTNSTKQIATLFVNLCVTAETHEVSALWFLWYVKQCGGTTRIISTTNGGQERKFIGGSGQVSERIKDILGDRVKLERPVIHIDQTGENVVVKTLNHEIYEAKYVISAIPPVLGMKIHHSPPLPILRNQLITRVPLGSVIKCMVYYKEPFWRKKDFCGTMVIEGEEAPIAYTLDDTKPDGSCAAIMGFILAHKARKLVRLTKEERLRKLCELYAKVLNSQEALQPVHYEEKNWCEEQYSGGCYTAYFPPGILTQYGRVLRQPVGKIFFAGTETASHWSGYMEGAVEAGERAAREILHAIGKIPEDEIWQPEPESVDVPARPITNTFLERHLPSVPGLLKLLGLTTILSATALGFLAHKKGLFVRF
Experiment: Inhibition of Monoamine oxidase B from rat liver mitochondria
TEST READOUT: IC50 (µM)
Enter your answer as a number in µM; do not include the unit.

For orientation, consider the following solved cases.
| SMILES RECORD | IC50, µM |
| --- | --- |
| CCn1c2ccccc2c2nnc(N)c(-c3ccc(C)cc3)c21 | 11 |
| Cc1ccc(-c2c3nc4ccccc4c-3n[nH]c2N)cc1 | 158 |
| Cn1c2ccccc2c2nnc(N)c(-c3cccc(Br)c3)c21 | 100 |
| CC(C)c1ccc(-c2c3nc4ccc(Br)cc4c-3n[nH]c2N)cc1 | 79 |

Report IC50 for Nc1nnc2c3ccccc3n(Cc3ccccc3)c2c1-c1ccccc1Cl tested on UniProtKB P19643. 35.4

---

Target: Amine oxidase [flavin-containing] B (Rattus norvegicus, UniProt P19643)
Sequence (P19643 whole entry): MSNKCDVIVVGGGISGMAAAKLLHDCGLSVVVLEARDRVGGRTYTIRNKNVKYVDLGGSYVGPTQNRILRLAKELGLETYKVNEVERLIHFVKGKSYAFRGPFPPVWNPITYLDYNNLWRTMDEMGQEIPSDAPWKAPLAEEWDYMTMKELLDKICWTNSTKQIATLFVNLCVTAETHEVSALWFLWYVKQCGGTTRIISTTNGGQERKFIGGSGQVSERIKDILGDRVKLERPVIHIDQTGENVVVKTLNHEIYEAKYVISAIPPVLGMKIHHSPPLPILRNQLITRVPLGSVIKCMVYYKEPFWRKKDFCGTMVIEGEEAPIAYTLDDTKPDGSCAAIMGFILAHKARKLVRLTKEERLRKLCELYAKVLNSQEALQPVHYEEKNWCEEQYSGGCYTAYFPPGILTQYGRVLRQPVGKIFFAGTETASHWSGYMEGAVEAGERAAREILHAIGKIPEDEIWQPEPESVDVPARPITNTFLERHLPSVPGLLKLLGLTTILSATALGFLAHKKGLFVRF
Test: Inhibition of Monoamine oxidase B from rat liver mitochondria
# maps each entry to its IC50

| SMILES RECORD | IC50 |
| --- | --- |
| CN(C)c1ccc(-c2c3nc4ccccc4c-3n[nH]c2N)cc1 | ~1000 µM |
| CCn1c2ccccc2c2nnc(N)c(-c3ccccc3Cl)c21 | ~1000 µM |

What value of IC50 has been reported for the following compound? CC(C)c1ccc(-c2c3nc4ccccc4c-3n[nH]c2N)cc1 > 1000 µM
